tested on: L1210 leukemia ip in BDF1 mice, survival T/C; test: NCI In Vivo Anticancer Drug Screen. Data for tumor model L1210 Leukemia (intraperitoneal) in B6D2F1 (BDF1) mice; settings: endpoint: mean survival time; dose: 100.0 mg/kg/injection; schedule: Q01DX001 (ip); vehicle: Klucel (hydroxypropylcellulose) (HPC); higher = longer survival
Inconclusive results and toxic doses are left out.
Listed next: entries and their corresponding T/C.

Some entries whose results are on file:
[
  {
    "COMPOUND": "N=C(N)SC(c1ccccc1)c1ccccc1",
    "ASSAY VALUE": "101 % of control"
  },
  {
    "COMPOUND": "O=C1Cc2ccccc2/C=C\\c2ccccc21",
    "ASSAY VALUE": "97 % of control"
  }
]

In the following, a different compound is considered.
Exam item: Quick check: T/C of COC(=O)C(C(=O)Oc1ccc([N+](=O)[O-])cc1)c1ccccc1 (stereo not drawn) ?
Marked response: 97 % of control

====

Listed next: entries and their corresponding T/C.
test system: L1210 leukemia ip in BDF1 mice, survival T/C; assay: NCI In Vivo Anticancer Drug Screen. Data for tumor model L1210 Leukemia (intraperitoneal) in B6D2F1 (BDF1) mice; conditions: endpoint: mean survival time; dose: 400.0 mg/kg/injection; schedule: Q01DX001 (ip); vehicle: saline; higher = longer survival
Toxic doses and inconclusive results are not listed.

[
  {
    "COMPOUND": "N#Cc1ccc(CCc2ccccc2)cc1",
    "OBSERVABLE": "T/C",
    "ASSAY VALUE": "102 % of control"
  },
  {
    "COMPOUND": "O=C(Nc1ccc(Br)c2c(NC(=O)c3ccccc3)ccc(Br)c12)c1ccccc1",
    "OBSERVABLE": "T/C",
    "ASSAY VALUE": "98 % of control"
  },
  {
    "COMPOUND": "O=S(=O)(/C(=C\\c1ccccc1)c1ccccc1)C(Cl)c1ccccc1 (configuration not stated)",
    "OBSERVABLE": "T/C",
    "ASSAY VALUE": "95 % of control"
  },
  {
    "COMPOUND": "CC(NC(=O)OCc1ccccc1)C(=O)Oc1cc(Cl)c(Cl)cc1Cl (configuration not stated)",
    "OBSERVABLE": "T/C",
    "ASSAY VALUE": "92 % of control"
  },
  {
    "COMPOUND": "O=C1/C(=C\\c2cccc3ccccc23)CS(=O)(=O)C/C1=C/c1cccc2ccccc12",
    "OBSERVABLE": "T/C",
    "ASSAY VALUE": "94 % of control"
  },
  {
    "COMPOUND": "COC1OC(CO)C(O)C1OS(C)(=O)=O (configuration not stated)",
    "OBSERVABLE": "T/C",
    "ASSAY VALUE": "101 % of control"
  }
]

Exam item: Quick check: T/C of CN(C)C(Cc1ccccc1)(C(=O)O)c1ccccc1 (configuration not stated) ?
Marked response: 88 % of control

Exam item: Quick check: T/C of `O=C(Nc1ccccc1)Nc1ccccc1` ?
Marked response: 94 % of control

Exam item: Quick check: T/C of CP1(=O)CCC=C1C(=O)O (configuration not stated) ?
Marked response: 95 % of control

Exam item: Quick check: T/C of `Cc1ccc(S(=O)(=O)NC(=O)N2CCCC2)cc1` ?
Marked response: 88 % of control

Exam item: Quick check: T/C of CCCN1CCN(CCO)CC1C (configuration not stated) ?
Marked response: 98 % of control

Exam item: Quick check: T/C of `CC(=O)Nc1ccc(S(=O)(=O)O)c(OC(C)=O)c1` ?
Marked response: 114 % of control

====

system: L1210 leukemia ip in BDF1 mice, survival T/C; assay: NCI In Vivo Anticancer Drug Screen. Data for tumor model L1210 Leukemia (intraperitoneal) in B6D2F1 (BDF1) mice; conditions: endpoint: mean survival time; dose: 200.0 mg/kg/injection; schedule: Q04DX003 (ip); vehicle: saline with Tween-80; higher = longer survival
Toxic doses and inconclusive results are not listed.
OBSERVABLE: T/C

Some entries whose results are on file:
[
  {
    "COMPOUND": "CCOC(=O)C(C(=O)OCC)C(=O)c1cccc2ccc3ccccc3c12",
    "T/C": "96 % of control"
  },
  {
    "COMPOUND": "O=Cc1csc2ncccc12",
    "T/C": "100 % of control"
  },
  {
    "COMPOUND": "CCCCOP1(=O)C=C(C)CC1 (configuration not stated)",
    "T/C": "97 % of control"
  },
  {
    "COMPOUND": "N#Cc1ccc(C#N)c2ccccc12",
    "T/C": "98 % of control"
  },
  {
    "COMPOUND": "CCCCCCCCCCCCCCCCOc1ccc(C)cc1",
    "T/C": "103 % of control"
  }
]

Exam item: Observed T/C on L1210 leukemia ip in BDF1 mice, survival T/C for CCCCCC1(O)C2CCCC1CCC2 (configuration not stated) , please.
Marked response: 97 % of control

Exam item: Observed T/C on L1210 leukemia ip in BDF1 mice, survival T/C for `Cc1ccc(NS(=O)(=O)c2ccccc2)cc1` , please.
Marked response: 100 % of control

====

system: L1210 leukemia ip in BDF1 mice, survival T/C; assay: NCI In Vivo Anticancer Drug Screen. Data for tumor model L1210 Leukemia (intraperitoneal) in B6D2F1 (BDF1) mice; details: endpoint: mean survival time; dose: 400.0 mg/kg/injection; schedule: Q04DX003 (ip); vehicle: Klucel (hydroxypropylcellulose) (HPC); higher = longer survival
Inconclusive results and toxic doses are left out.
OBSERVABLE: T/C

[
  {
    "COMPOUND": "CC(=O)ONCCc1ccc(S(=O)(=O)F)cc1",
    "T/C": "98 % of control"
  },
  {
    "COMPOUND": "CC(C)=C1C2CCC1C(COS(=O)(=O)c1ccc(C)cc1)C2COS(=O)(=O)c1ccc(C)cc1 (stereo not drawn)",
    "T/C": "102 % of control"
  }
]

Exam item: Quick check: T/C of `Cc1oc2ccc(O)c(N=Nc3cccc([N+](=O)[O-])c3)c2c1C` ?
Marked response: 109 % of control

====

system: L1210 leukemia ip in BDF1 mice, survival T/C; experiment: NCI In Vivo Anticancer Drug Screen. Data for tumor model L1210 Leukemia (intraperitoneal) in B6D2F1 (BDF1) mice; settings: endpoint: mean survival time; dose: 200.0 mg/kg/injection; schedule: Q04DX003 (ip); vehicle: Klucel (hydroxypropylcellulose) (HPC); higher = longer survival
Toxic doses and inconclusive results are not listed. Square brackets hold non-standard residues; d marks the D form. Peptide text beside a SMILES is read from it. * marks the point of attachment. ξ: configuration not given here. Cbz = O=C(OCc1ccccc1)*; ξP = O=C(O)C1CCCN1
OBSERVABLE: T/C

[
  {
    "COMPOUND": "Oc1c(Br)cc(Br)cc1/C=N/N=C/c1cc(Br)cc(Br)c1O",
    "MEASUREMENT TARGET": "L1210 leukemia ip in BDF1 mice, survival T/C",
    "T/C": "97 % of control"
  },
  {
    "COMPOUND": "O=C(NCC(=O)N1CCCC1C(=O)O)OCc1ccccc1 (stereo not drawn) (Cbz-Gly-[ξP]-OH)",
    "MEASUREMENT TARGET": "L1210 leukemia ip in BDF1 mice, survival T/C",
    "T/C": "93 % of control"
  },
  {
    "COMPOUND": "COC(=O)C(CSc1ccccc1)NC(=O)c1ccccc1 (stereo unspecified)",
    "MEASUREMENT TARGET": "L1210 leukemia ip in BDF1 mice, survival T/C",
    "T/C": "114 % of control"
  }
]

Exam item: Quick check: T/C of `CCOC(=O)Nc1ccccc1C` ?
Marked response: 100 % of control

Exam item: Quick check: T/C of `O=C(CCCl)N1CCN(C(=O)CCCl)CC1` ?
Marked response: 99 % of control

Exam item: Quick check: T/C of `COc1cc(N(CCCl)CCCl)ccc1CN1CCCN(Cc2ccc(N(CCCl)CCCl)cc2OC)C1c1ccccc1O` ?
Marked response: 103 % of control

====

tested on: L1210 leukemia ip in BDF1 mice, survival T/C; assay: NCI In Vivo Anticancer Drug Screen. Data for tumor model L1210 Leukemia (intraperitoneal) in B6D2F1 (BDF1) mice; conditions: endpoint: mean survival time; dose: 25.0 mg/kg/injection; schedule: Q01DX001 (ip); vehicle: saline; higher = longer survival
Inconclusive results and toxic doses are left out.
OBSERVABLE: T/C

Some entries whose results are on file:
[
  {
    "COMPOUND": "NCCCCc1nc(N)nc(N)c1-c1ccc(Cl)cc1",
    "MEASUREMENT TARGET": "L1210 leukemia ip in BDF1 mice, survival T/C",
    "T/C": "104 % of control"
  },
  {
    "COMPOUND": "COC(=O)C1CC23C=CCN4CC(C2C)C2(c5ccccc5NC12)C43 (centres undefined)",
    "MEASUREMENT TARGET": "L1210 leukemia ip in BDF1 mice, survival T/C",
    "T/C": "101 % of control"
  },
  {
    "COMPOUND": "CCCCCCCC(=O)NOS(=O)(=O)O",
    "MEASUREMENT TARGET": "L1210 leukemia ip in BDF1 mice, survival T/C",
    "T/C": "101 % of control"
  }
]

In the following, a different compound is considered.
Exam item: Observed T/C on L1210 leukemia ip in BDF1 mice, survival T/C for `O=[N+]([O-])c1ccc(S(=O)(=O)c2ccccc2)c([N+](=O)[O-])c1` , please.
Marked response: 91 % of control

These measurements were taken from PubChem BioAssay AID248.
